# Target Or Test System: IL16_4, Q14005
# Sequence (Q14005 1229-1329): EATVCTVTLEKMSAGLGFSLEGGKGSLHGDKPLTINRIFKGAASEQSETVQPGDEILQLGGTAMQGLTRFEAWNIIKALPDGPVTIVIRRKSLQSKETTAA
# Test: holdup assay
# Parameters: key: below the threshold = too weak to quantify, mostly under pKd 3.1 to 4
# Test Settings: plain residues with an end cap or a label only (N-terminal biotin on a linker: ado-ado)
Reported Endpoint: pKd

Below are worked cases with known answers.
| Binder | pKd |
| --- | --- |
| HDDYFYHDEL [RCN2, Q14257] | below the threshold |
| WAKEKQHTRL [SLC17A1, Q14916] | below the threshold |
| MLPANYVEAI [NEB, P20929] | below the threshold |
| EAVTVESTSL [SLC22A11, Q9NSA0] | below the threshold |
| KLQNPNQSVV [TYRP1, P17643] | below the threshold |

Respond only with pKd recorded for KIEDVEITLV [FCHSD2, O94868]
below the threshold

Quickly give me recorded pKd for AKADAQESRL [PLCB2, Q00722]
3.61

Give the value of pKd reported for the following: KAEEKPPSKV [SCN4B, Q8IWT1]
3.65

Please give measured pKd of the following entry: AHGSTRDQSI [KCNB1, Q14721]
below the threshold

Answer with the recorded pKd for the binder listed here: DLLGGGSDSI [TNRC6B, Q9UPQ9]
3.61

Kindly indicate its recorded pKd. Item: TKDKVQETQI [LRRC4, Q9HBW1]
below the threshold

State its pKd for this binder: LLQEEWETVM [PTH1R, Q03431]
3.93

Quote pKd reported for SQPLLVHDDV [KIT, P10721] please.
below the threshold

Identify measured pKd associated with MQILSKPEFI [NPSR1, Q6W5P4]
3.7

For ELKAEDEVQI [DCHS2, Q6V1P9] , write its pKd.
3.6

Item VYEVPVETKF [SLC26A3, P40879] : provide pKd
below the threshold

Data origin, for the record: paper PMC9482650
